Listed here are compounds together with their documented EC50.
Test system: EGFP-Axin2 fusion protein
condition-context: read-out: Axin2 Stabilization EC50; HEK293 EGFP-Axin2 cells, 24 hours; Mean ± SEM

{"compound": "CN1CCCc2c1nc(N1CCN(Cc3ncccc3O)CC1)[nH]c2=O", "EC50 [µM]": 0.0269}
{"compound": "CN1CCCc2c1nc(N1CCN(Cc3nccc(Cl)n3)CC1)[nH]c2=O", "EC50 [µM]": 0.0616}
{"compound": "Cc1nccnc1CN1CCN(c2nc3c(c(=O)[nH]2)CCCN3C)CC1", "EC50 [µM]": 0.118}
{"compound": "CC(c1ncccn1)N1CCN(c2nc3c(c(=O)[nH]2)CCCN3C)CC1 (racemic) [Example 7]", "EC50 [µM]": 0.121}
{"compound": "CCC(c1ncccn1)N1CCN(c2nc3c(c(=O)[nH]2)CCCN3C)CC1 (stereo not drawn) [Example 10]", "EC50 [µM]": 0.59}
{"compound": "CCC(c1ncccn1)N1CCN(c2nc3c(c(=O)[nH]2)CCCN3C)CC1 (single isomer, unassigned; isomer 2) [Example 12]", "EC50 [µM]": 0.122}
{"compound": "Cc1cnc(CN2CCN(c3nc4c(c(=O)[nH]3)CCCN4C)CC2)nc1", "EC50 [µM]": 0.198}
{"compound": "CN1CCCc2c1nc(N1CCN(Cc3ncccn3)CC1)[nH]c2=O", "EC50 [µM]": 0.0659}
{"compound": "CN1CCCc2c1nc(N1CCN(Cc3nccc(C(F)(F)F)n3)CC1)[nH]c2=O", "EC50 [µM]": 0.509}
{"compound": "CN1CCCc2c1nc(N1CCN(Cc3ccccn3)CC1)[nH]c2=O", "EC50 [µM]": 0.0626}
{"compound": "CN1CCCc2c1nc(N1CCN(Cc3ncc(F)cn3)CC1)[nH]c2=O", "EC50 [µM]": 0.181}
{"compound": "COc1ccnc(CN2CCN(c3nc4c(c(=O)[nH]3)CCCN4C)CC2)n1", "EC50 [µM]": 0.101}
{"compound": "CC(c1ncccn1)N1CCN(c2nc3c(c(=O)[nH]2)CCCN3C)CC1 (single isomer, unassigned; isomer 1) [Example 8]", "EC50 [µM]": 0.0715}
{"compound": "CN1CCCc2c1nc(N1CCN(Cc3ncccc3Br)CC1)[nH]c2=O", "EC50 [µM]": 0.0184}
{"compound": "CN1CCCc2c1nc(N1CCN(Cc3ncccc3F)CC1)[nH]c2=O", "EC50 [µM]": 0.0779}
{"compound": "CN1CCCc2c1nc(N1CCN(Cc3nccnc3Cl)CC1)[nH]c2=O", "EC50 [µM]": 0.0745}
{"compound": "CN1CCCc2c1nc(N1CCN(Cc3cnccn3)CC1)[nH]c2=O", "EC50 [µM]": 0.141}
{"compound": "Cc1ccnc(CN2CCN(c3nc4c(c(=O)[nH]3)CCCN4C)CC2)n1", "EC50 [µM]": 0.0527}
